The measured values listed here are drawn from patent US8106055B2.

molecular target: serotonin (5-HT) reuptake (Rattus norvegicus, UniProt P31652); construct: synaptosomes are freshly isolated from areas of the rat brain; from tissue; host or cells: rat brain synaptosomes (P2 fraction); test: Inhibition of serotonin (5HT) reuptake in synaptosomes from rat brain; type: biochemical; settings: test concentration of 10 μM
Sequence (P31652 whole entry): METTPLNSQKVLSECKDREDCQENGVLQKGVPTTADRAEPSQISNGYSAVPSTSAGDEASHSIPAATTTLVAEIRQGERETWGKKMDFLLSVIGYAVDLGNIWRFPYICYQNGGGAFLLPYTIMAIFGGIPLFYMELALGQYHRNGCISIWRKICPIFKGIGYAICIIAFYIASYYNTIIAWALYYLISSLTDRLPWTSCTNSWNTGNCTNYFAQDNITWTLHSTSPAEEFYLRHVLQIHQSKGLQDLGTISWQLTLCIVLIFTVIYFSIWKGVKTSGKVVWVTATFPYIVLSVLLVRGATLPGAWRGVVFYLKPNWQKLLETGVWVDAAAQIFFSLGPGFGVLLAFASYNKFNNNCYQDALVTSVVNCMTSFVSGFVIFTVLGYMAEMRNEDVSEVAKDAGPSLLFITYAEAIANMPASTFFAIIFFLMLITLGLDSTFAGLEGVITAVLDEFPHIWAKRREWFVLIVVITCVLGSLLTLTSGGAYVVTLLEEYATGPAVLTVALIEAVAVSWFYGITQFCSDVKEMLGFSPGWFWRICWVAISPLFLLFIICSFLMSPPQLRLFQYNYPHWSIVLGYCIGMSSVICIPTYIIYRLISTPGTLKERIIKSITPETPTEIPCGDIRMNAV
valueKind: 5-HT (inhibition of reuptake of serotonin, % inhibition) (%)
Please state the figure in %; there is no need to write the unit.

Please report the recorded 5-HT (inhibition of reuptake of serotonin, % inhibition) for CN(C)C(c1ccc(F)cc1)C1CCC(CNC(=O)COC2CCN(S(=O)(=O)c3ccccc3)C2)CC1 (stereo not shown) .
99

Please do the same for COc1ccc(S(=O)(=O)N(C)CCOCC(=O)NCC2CCC(C(c3ccc(Cl)cc3)N(C)C)CC2)cc1 (stereo not shown) as well.
83

COc1ccc(S(=O)(=O)N2CCC(OCC(=O)NCCC3CCC(C(c4cccc(F)c4)N(C)C)CC3)C2)cc1OC (stereo not shown) ?
90

And the next one, CN(C)C(CCc1ccccc1)C1CCC(CNC(=O)COC2CCN(S(=O)(=O)c3ccc(Cl)cc3Cl)C2)CC1 (stereo not shown) ?
89

Repeat with COc1ccc(S(=O)(=O)N2CCCCC2CCOCC(=O)NCCC2CCC(C(c3cccc(F)c3)N(C)C)CC2)cc1 (stereo not shown)
98

Same read-out for CC(=O)OC(C(=O)NCC1CCC(C(c2ccc(Cl)cc2)N(C)C)CC1)c1ccccc1 (stereo not shown) ?
15

What about this molecule? CN(C)C(c1cccc(F)c1)C1CCC(CNC(=O)COCCN2CCN(S(=O)(=O)c3ccccc3)CC2)CC1 (stereo not shown)
93

====

molecular target: human μ opiate receptor (Homo sapiens, UniProt P35372); construct: purchased PerkinElmer Life Sciences, Zaventem, Belgium RB-HOM; host or cells: CHO-K1 cells (membrane preparation); assay: Affinity for the human μ opiate receptor ([3H]-naloxone displacement, CHO-K1 receptor membrane preparation, SPA); assay type: binding; details: 1.5 h, Table 3, to be read in the same way as Table 1; test concentration 1 μM; read-out: μ
Sequence (P35372 whole entry): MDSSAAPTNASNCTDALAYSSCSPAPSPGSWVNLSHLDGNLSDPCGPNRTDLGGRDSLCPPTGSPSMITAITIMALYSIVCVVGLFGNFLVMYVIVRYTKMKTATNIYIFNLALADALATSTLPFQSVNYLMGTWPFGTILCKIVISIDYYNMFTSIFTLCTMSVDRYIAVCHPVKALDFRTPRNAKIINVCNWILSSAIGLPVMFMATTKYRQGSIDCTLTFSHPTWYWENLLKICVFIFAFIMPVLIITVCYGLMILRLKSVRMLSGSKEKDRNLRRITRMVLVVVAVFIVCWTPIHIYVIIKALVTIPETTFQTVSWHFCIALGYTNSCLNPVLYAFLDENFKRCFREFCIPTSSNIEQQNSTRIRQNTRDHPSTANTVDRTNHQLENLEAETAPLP
Answer not met if inhibition at 1 µM is under 20%, and met if it is 20% or more.

Is inhibition at 1 µM at least 20%? Consider COc1cc(C)c(S(=O)(=O)N2CCCCC2COCC(=O)NC2CCC(C(CCc3ccccc3)N3CCOCC3)CC2)c(C)c1 (centres unmarked)
met

Same thing, different molecule: COc1cc(C)c(S(=O)(=O)N2CCC(OCC(=O)NC3CCC(C(CCc4ccccc4)N4CCOCC4)CC3)C2)c(C)c1 (centres unmarked)
not met

Proceed to CN1CCN(C(c2ccccc2)C2CCC(NC(=O)COCCN(C)S(=O)(=O)c3c(Cl)cc(C(F)(F)F)cc3Cl)CC2)CC1 (centres unmarked)
met

Note, next up: O=C(COCC1CCCN1S(=O)(=O)c1c(Cl)cc(Cl)cc1Cl)NCC1CCC(C(CCc2ccccc2)N2CCCC2)CC1 (centres unmarked)
met

Then O=C(COC1CCCN(S(=O)(=O)c2c(Cl)cc(Cl)cc2Cl)C1)NC1CCC(C(c2ccccc2)N2CCCC2)CC1 (centres unmarked) ?
met

Now give it for O=C(COCC1CCCN(S(=O)(=O)c2c(Cl)cc(Cl)cc2Cl)C1)NC1CCC(C(c2ccccc2)N2CCOCC2)CC1 (centres unmarked) too.
not met

Same again, this time with COc1cc(C)c(S(=O)(=O)N2CCCC2COCC(=O)NC2CCC(C(c3ccccc3)N3CCN(C)CC3)CC2)c(C)c1 (centres unmarked)
met

Okay, and COc1cc(C)c(S(=O)(=O)N(C)CCOCC(=O)NCC2CCC(C(CCc3ccccc3)N3CCOCC3)CC2)c(C)c1 (centres unmarked) ?
not met

Same lookup for COc1cc(C)c(S(=O)(=O)N2CCCCC2COCC(=O)NC2CCC(C(c3ccccc3)N3CCOCC3)CC2)c(C)c1 (centres unmarked) , please.
not met

Next entry: COc1cc(C)c(S(=O)(=O)N(C)CCOCC(=O)NCC2CCC(C(CCc3ccccc3)N3CCCC3)CC2)c(C)c1 (centres unmarked)
met

For COc1cc(C)c(S(=O)(=O)N2CCCCC2COCC(=O)NC2CCC(C(c3ccccc3)N3CCCC3)CC2)c(C)c1 (centres unmarked) then?
met

// query: O=C(COC1CCCN(S(=O)(=O)c2c(Cl)cc(Cl)cc2Cl)C1)NC1CCC(C(CCc2ccccc2)N2CCCCC2)CC1 (centres unmarked)
met

Same for COc1cc(C)c(S(=O)(=O)N2CCCC(COCC(=O)NCC3CCC(C(CCc4ccccc4)N4CCOCC4)CC3)C2)c(C)c1 (centres unmarked)
not met

Query CN(CCOCC(=O)NCC1CCC(C(CCc2ccccc2)N2CCOCC2)CC1)S(=O)(=O)c1c(Cl)cccc1Cl (centres unmarked) next
not met
